tested on: rNav1.2 sodium channels (Rattus norvegicus, UniProt P04775)
Construct: host or cells: HEK-293
Sequence (P04775 whole entry): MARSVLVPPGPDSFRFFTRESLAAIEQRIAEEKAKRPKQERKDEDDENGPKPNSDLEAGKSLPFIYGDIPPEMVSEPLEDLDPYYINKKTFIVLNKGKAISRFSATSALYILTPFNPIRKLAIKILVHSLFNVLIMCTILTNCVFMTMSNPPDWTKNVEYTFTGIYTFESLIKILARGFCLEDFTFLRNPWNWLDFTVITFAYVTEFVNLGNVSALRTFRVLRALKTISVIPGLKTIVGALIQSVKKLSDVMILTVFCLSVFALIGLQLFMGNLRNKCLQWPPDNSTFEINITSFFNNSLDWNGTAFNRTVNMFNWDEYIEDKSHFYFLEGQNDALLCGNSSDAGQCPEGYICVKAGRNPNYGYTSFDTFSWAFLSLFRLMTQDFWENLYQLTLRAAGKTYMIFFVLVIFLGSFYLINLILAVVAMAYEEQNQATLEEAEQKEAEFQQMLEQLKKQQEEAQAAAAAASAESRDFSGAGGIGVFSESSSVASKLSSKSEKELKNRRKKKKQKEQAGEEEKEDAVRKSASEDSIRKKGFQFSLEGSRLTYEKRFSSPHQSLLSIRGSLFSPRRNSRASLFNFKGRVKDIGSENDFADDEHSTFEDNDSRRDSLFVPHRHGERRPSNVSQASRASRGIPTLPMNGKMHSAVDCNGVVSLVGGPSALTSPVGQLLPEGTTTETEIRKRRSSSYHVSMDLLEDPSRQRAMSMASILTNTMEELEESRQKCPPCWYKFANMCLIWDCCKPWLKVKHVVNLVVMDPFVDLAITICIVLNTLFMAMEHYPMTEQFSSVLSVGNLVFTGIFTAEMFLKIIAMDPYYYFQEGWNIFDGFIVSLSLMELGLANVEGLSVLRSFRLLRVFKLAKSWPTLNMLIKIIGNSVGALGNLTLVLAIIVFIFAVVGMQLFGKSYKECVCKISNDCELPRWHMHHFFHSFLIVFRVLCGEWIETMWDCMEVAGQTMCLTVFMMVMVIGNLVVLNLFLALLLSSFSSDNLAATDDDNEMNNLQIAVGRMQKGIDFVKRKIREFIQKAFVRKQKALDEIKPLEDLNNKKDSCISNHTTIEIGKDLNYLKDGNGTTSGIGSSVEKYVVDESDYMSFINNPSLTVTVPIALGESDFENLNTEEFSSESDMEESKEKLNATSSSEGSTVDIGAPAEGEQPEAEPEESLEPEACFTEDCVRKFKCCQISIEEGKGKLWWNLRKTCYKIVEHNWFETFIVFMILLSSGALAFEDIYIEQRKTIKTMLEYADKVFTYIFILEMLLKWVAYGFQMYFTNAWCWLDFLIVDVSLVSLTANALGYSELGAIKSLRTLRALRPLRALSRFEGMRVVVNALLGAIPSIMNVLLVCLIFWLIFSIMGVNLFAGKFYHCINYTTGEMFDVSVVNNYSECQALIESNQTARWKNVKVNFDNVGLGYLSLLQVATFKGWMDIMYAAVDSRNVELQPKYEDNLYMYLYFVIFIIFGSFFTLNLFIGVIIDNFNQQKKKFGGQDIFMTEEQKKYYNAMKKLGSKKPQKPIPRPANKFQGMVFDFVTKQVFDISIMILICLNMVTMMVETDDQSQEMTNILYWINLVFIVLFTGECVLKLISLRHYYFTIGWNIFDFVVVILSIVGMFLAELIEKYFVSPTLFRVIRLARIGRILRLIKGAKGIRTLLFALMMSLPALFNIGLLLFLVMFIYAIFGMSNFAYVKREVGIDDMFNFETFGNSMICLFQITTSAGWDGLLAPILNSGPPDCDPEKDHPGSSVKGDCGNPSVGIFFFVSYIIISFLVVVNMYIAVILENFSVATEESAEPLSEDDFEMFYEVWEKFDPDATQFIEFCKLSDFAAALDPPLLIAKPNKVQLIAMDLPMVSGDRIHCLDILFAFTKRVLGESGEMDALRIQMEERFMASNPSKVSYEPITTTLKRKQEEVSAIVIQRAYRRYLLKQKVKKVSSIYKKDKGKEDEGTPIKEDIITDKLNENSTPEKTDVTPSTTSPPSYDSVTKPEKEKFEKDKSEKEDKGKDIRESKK
method description: QPatch automated patch clamp, inhibition of sodium currents evoked by 5 Hz trains at three extracellular pH values
Format: cell-based
experimental parameters: pH 6.0/8.6; cc 300 mM
Use T when the recorded log Ratio App Aff is no lower than 0.001; use F when it is lower.

Item O=C(NCC1CCCCN1)c1cc(OCC(F)(F)F)ccc1OCC(F)(F)F (centres unmarked) [flecainide] with log Ratio App Aff of 0.001 or above?
T

Would you kindly repeat that for Nc1nnc(-c2cccc(Cl)c2Cl)c(N)n1 ?
F

Would you kindly repeat that for Cc1cccc(C)c1OCC(C)N (centres unmarked) ?
T

Would you kindly repeat that for O=C1NC(=O)C(c2ccccc2)(c2ccccc2)N1 ?
T

Would you kindly repeat that for NC(=O)N1c2ccccc2C=Cc2ccccc21 [carbamazepine] ?
T
